assay: endothelial E-selectin expression blockers – imaging, HUVEC, immunofluorescence, MLSMR starter and 10KST1 sets, primary screen (AID 487); settings: HUVEC TNFalpha-induced E-selectin immunofluorescence imaging, at 2 µM; stronger effect = higher value;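 note: signal is fraction of cell area covered by stained E-selectin grains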
METRIC NAME: inhibition (%)
Report as a plain number; the unit % is understood.

CCn1c(O)c(C(=O)CC2NCCc3ccccc32)c(=O)n(CC)c1=S (configuration not stated) = -84.9
CCCCc1nc(N2CCNCC2)c(C#N)c2c1CSC(C)(C)C2 = -143
CCN(CC)c1ccc(N=Cc2c(O)n(-c3cc(OC)ccc3OC)c(=O)[nH]c2=O)cc1 = -25.3
CC1(C)CC(=O)C(C=NCCN2CCN(C(=O)Cc3ccc(F)cc3)CC2)=C(O)C1 = -57.7
COCCOC(=O)C1=C(N)Oc2c(c(=O)oc3ccccc23)[C@@]12C(=O)Nc1ccccc12 = -14.5

Look up inhibition for this compound: `CCOC(=O)[C@@]1(C#N)[C@@H]2C=CC(C(N)=O)=CN2[C@@H](C(N)=O)[C@@H]1c1cccc(Cl)c1`
-137

And for Cc1ccc(-c2nc(CS(=O)CC(=O)N3CCC4(CC3)OCCO4)c(C)o2)cc1 (configuration not stated) ?
-4.2

And for `O=C(COc1ccc2ccccc2c1)N1CCN(C2CCN(Cc3ccccc3)CC2)CC1` ?
-123

And for `CCN1CCN(C(=O)COc2cc(=O)n(CC)c3ccccc23)CC1` ?
-7.3

And for CN1[C@@H]2CC[C@H]1CC(OC(=O)C1C=Nc3ccccc31)C2 (some centres not stated) ?
-33.8

And for C=CCOC(=O)C1=C(C)OC(N)=C(C#N)C12C(=O)N(CN1CCOCC1)c1ccccc12 (configuration not stated) ?
-73.4

And for `COc1ccc(CCn2c(O)c(C=NCCCN(C)C)c(=O)[nH]c2=O)cc1OC` ?
-38.1

And for `Nc1ccccc1C(=O)OC1CSC1` ?
-29.1

And for `NC(=O)CSP(=O)(c1ccccc1)c1ccccc1` ?
-31.5

And for `CN1CCc2nc3sc(C#N)c(N)c3c(-c3cccs3)c2C1` ?
-65

And for CCCSP1(=S)NCCCO1 (configuration not stated) ?
-157

And for `COc1ccc(Cc2nccc3cc(OC)c(OC)cc23)cc1OC` ?
-204

And for `COc1ccc(C(=O)CN2CCOCC2)cc1F` ?
-111

And for `Cc1cccc(N2CCc3c2nc2ccccc2c3N)c1` ?
-54.5

And for `N=C(N)c1c(O)n(C2CCCCC2)c(=O)n(C2CCCCC2)c1=O` ?
-11

And for `C=CCOC(=O)C1=C(C)OC(N)=C(C#N)[C@@]12C(=O)N(CC(N)=O)c1ccccc12` ?
-499

And for `C=C1CC[C@@]2(O)[C@H]3Cc4ccc(O)c5c4[C@@]2(CCN3CC2CC2)[C@H]1O5` ?
-20.4
